// provenance: PubChem BioAssay AID1963424

# System: 327498-153-R-J2-PDC complex spheroid growth, % test/control;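 also: spheroids exposed to compound for 7 days after 3 days of growth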
# assay_name: Anticancer human tumor 327498-153-R-J2-PDC patient-derived uterine carcinosarcoma cell line growth inhibition [Asc]
# settings: curve of first compound; second compound 0.0316 µM
pIC50: −log10 of the molar value.
Recorded pIC50 values for a group of molecules are listed next.

# molecule, test_target, attribute_measured, value_observed
data = [
    ("CCN1CCN(Cc2ccc(Nc3ncc(F)c(-c4cc(F)c5nc(C)n(C(C)C)c5c4)n3)nc2)CC1 + CNC(C)C(=O)NC1CN(S(=O)(=O)c2cccc(S(=O)(=O)N3CCC4CCC(C(=O)NC(c5ccccc5)c5ccccc5)N4C(=O)C(NC(=O)C(C)NC)C3)c2)CCC2CCC(C(=O)NC(c3ccccc3)c3ccccc3)N2C1=O", "327498-153-R-J2-PDC complex spheroid growth, % test/control", "pIC50", "< 6.00"),
]

Turning to the following molecule.
For record C=CC(=O)N1CCN(c2nc(=O)n(-c3c(C)ccnc3C(C)C)c3nc(-c4c(O)cccc4F)c(F)cc23)C(C)C1 (configuration not stated) + CNC(C)C(=O)NC1CN(S(=O)(=O)c2cccc(S(=O)(=O)N3CCC4CCC(C(=O)NC(c5ccccc5)c5ccccc5)N4C(=O)C(NC(=O)C(C)NC)C3)c2)CCC2CCC(C(=O)NC(c3ccccc3)c3ccccc3)N2C1=O the listed pIC50 is < 5.00
